# pKi annotations
# systemName: UniProt O75116
# Sequence (O75116 whole entry): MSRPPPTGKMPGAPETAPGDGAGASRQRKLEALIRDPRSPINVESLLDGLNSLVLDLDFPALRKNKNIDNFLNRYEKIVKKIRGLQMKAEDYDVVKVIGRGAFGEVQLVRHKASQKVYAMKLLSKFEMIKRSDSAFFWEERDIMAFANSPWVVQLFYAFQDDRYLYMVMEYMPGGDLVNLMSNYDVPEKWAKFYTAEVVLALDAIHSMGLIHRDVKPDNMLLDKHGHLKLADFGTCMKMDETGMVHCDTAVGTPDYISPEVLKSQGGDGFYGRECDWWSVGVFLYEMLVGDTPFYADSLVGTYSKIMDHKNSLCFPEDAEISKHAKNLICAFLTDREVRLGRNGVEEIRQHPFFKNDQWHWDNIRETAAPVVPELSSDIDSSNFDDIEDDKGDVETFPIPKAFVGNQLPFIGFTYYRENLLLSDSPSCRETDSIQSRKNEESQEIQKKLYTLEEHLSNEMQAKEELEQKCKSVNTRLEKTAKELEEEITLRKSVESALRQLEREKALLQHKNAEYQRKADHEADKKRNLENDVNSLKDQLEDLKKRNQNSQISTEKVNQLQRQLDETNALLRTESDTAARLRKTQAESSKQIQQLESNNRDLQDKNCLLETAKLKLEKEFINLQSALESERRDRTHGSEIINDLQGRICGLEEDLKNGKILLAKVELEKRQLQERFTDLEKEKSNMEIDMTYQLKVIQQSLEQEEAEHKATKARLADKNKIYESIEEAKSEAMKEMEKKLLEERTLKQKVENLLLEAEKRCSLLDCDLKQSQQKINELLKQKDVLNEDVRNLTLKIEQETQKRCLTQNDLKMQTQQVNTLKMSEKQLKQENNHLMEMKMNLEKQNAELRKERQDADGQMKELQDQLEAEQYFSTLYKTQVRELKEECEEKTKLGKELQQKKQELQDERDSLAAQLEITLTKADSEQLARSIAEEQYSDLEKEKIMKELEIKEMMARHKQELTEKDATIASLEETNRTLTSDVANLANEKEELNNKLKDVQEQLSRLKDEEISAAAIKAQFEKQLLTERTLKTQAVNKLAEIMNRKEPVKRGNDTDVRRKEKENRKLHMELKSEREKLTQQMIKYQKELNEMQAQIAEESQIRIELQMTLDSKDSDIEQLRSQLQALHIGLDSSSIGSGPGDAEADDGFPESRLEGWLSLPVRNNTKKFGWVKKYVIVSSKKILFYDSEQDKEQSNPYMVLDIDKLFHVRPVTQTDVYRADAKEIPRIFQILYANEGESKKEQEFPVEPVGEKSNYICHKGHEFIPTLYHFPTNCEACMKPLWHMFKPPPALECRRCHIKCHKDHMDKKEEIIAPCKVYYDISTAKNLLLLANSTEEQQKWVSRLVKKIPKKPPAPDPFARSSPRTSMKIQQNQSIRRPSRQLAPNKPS
# methodSummary: In vitro Rho kinase inhibitory activity assay, ADP-Glo, Method B (ATP 200 μM)
# Assay type: biochemical
# experimentalSetup: read-out: Method B ROCK 2 (Ki)
pKi: −log10 of the molar value.

Ask: Need pKi, item CNC(=O)c1cccc(CNc2ncc(-c3cc[nH]c(=O)c3)c3c2CCO3)c1 [Example B, reference compound]
Reply: < 7.52

---

# systemName: UniProt:O75116
# methodSummary: In vitro Rho kinase inhibitory activity assay, ADP-Glo, Method B (ATP 200 μM)
# Format: biochemical
# experimentalSetup: read-out: Method B ROCK 2 (Ki)
pKi: −log10 of the molar value.
propertyName: pKi

Take a look at these entries with their results.
# compound, propertyName, recordedMeasurement
measured = [
    ("c1ccc(CNc2ncc(-c3ccncc3)c3c2CCO3)cc1 [Example A, reference compound]", "pKi", "< 7.52"),
    ("O=C(NC1CC1)c1cccc(CNc2ncc(-c3ccncc3)c3c2CCO3)c1 [Example 16]", "pKi", "7.52 to 8.52"),
    ("O=C(NC1CCOCC1)c1cccc(CNc2ncc(-c3ccncc3)c3c2CCO3)c1 [Example 7]", "pKi", "7.52 to 8.52"),
    ("CC(=O)N1CCC(CCNC(=O)c2cccc(CNc3ncc(-c4ccncc4)c4c3CCO4)c2)CC1 [Example 44]", "pKi", "≥ 8.52"),
    ("O=C(Nc1ccncn1)c1cccc(CNc2ncc(-c3ccncc3)c3c2CCO3)c1 [Example 18]", "pKi", "≥ 8.52"),
]

Ask: Need pKi, item Cc1cc(CNC(=O)c2cccc(CNc3ncc(-c4ccncc4)c4c3CCO4)c2)no1 [Example 2]
Reply: ≥ 8.52

// provenance: patent US12534474B2
